- Target Entity: CD28 (Homo sapiens, UniProt P10747)
- Protocol: Jurkat/IL2 + CHO/OKT3 +/- PD-L1 reporter assay: PD-L1-dependent CD28 costimulation
- Format: cell-based
- Set-up: host or cells: Jurkat cells expressing an IL-2-luciferase reporter
- Run Conditions: Table E12; Jurkat/IL2 + CHO/OKT3/PD-L1; 5.0 nM
I would appreciate it if you labelled entries MET when Relative Luciferase Units (RLU), CD80 Cone 5.0 nM is 2000 RLU or higher, otherwise NOT MET.

[[record]]
molecule = "E35D/N48K/L72V (protein) VIHVTKEVKEVATLSCGHNVSVEELAQTRIYWQKDKKMVLTMMSGDMKIWPEYKNRTIFDITNNLSIVILAVRPSDEGTYECVVLKYEKDAFKREHLAEVTLSVKAD"
assigned_category = "NOT MET"

[[record]]
molecule = "E35D/M43I/D46E/A71G/L85M (protein) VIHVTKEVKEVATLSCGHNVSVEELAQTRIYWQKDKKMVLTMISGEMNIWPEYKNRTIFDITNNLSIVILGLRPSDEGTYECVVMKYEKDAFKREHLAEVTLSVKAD"
assigned_category = "NOT MET"

[[record]]
molecule = "D46V/M47I/A71G (protein) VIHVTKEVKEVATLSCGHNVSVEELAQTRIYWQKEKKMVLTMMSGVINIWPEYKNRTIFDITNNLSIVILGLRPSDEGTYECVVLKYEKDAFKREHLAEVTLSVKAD"
assigned_category = "NOT MET"

[[record]]
molecule = "E35D/M47V/N48K/L85M (protein) VIHVTKEVKEVATLSCGHNVSVEELAQTRIYWQKDKKMVLTMMSGDVKIWPEYKNRTIFDITNNLSIVILALRPSDEGTYECVVMKYEKDAFKREHLAEVTLSVKAD"
assigned_category = "MET"

[[record]]
molecule = "H18Y/E35D/M47V/N48K (protein) VIHVTKEVKEVATLSCGYNVSVEELAQTRIYWQKDKKMVLTMMSGDVKIWPEYKNRTIFDITNNLSIVILALRPSDEGTYECVVLKYEKDAFKREHLAEVTLSVKAD"
assigned_category = "MET"

[[record]]
molecule = "M43I/M47L/A71G (protein) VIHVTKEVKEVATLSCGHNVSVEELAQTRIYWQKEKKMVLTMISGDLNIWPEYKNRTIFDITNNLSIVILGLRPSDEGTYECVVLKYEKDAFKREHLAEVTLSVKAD"
assigned_category = "NOT MET"

[[record]]
molecule = "E35D/M47V (protein) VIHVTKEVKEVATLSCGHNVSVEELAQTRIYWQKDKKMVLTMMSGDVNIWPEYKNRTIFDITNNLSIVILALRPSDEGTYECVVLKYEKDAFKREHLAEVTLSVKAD"
assigned_category = "NOT MET"


The reported numbers originate from patent US20220177587A1.
